pIC50: −log10 of the molar value.
These molecules were tested on HIV protease (Human immunodeficiency virus type 1 group M subtype B, UniProt P04585); pIC50 is the recorded read-out.

molecule | pIC50
CC(C)CN(C[C@@H](O)[C@H](Cc1ccccc1)NC(=O)[C@H](C)CS(C)(=O)=O)S(=O)(=O)c1ccc2c(c1)OCCO2 | 8.70
CC(C)CN(C[C@@H](O)[C@H](Cc1ccccc1)NC(=O)[C@H](C)C[S+](C)[O-])S(=O)(=O)c1ccc2c(c1)OCO2 (single isomer, unassigned) [Entry 6] | 8.15
CC(C)CN(C[C@@H](O)[C@H](Cc1ccccc1)NC(=O)[C@H](C)CS(C)(=O)=O)S(=O)(=O)c1ccc2ncsc2c1 | 8.52
CC(C)CN(C[C@@H](O)[C@H](Cc1ccccc1)NC(=O)[C@H](C)CS(C)(=O)=O)S(=O)(=O)c1ccc2c(c1)OCO2 | 8.70
CC(C)CN(C[C@@H](O)[C@H](Cc1ccccc1)NC(=O)[C@H](C)CS(C)(=O)=O)S(=O)(=O)c1ccc2c(c1)CCO2 | 8.70
CC(C)CN(C[C@@H](O)[C@H](Cc1ccccc1)NC(=O)[C@H](C)C[S+](C)[O-])S(=O)(=O)c1ccc2c(c1)OCO2 (stereo partly drawn) [Entry 5] | 8.70

Reference for the values: patent US6667307B2
